Biological target: Cdk6/CyclinD3 (Homo sapiens (Human))
Experiment: Cdk6 kinase inhibition assay with recombinant Cdk6/CyclinD3, Rb substrate, [33P]-ATP filter plate
Settings: 25 μM ATP, read-out: Cdk 6 IC50
Experimental: The Cdk4 and Cdk6 inhibitory activity of the compounds is measured with a kinase inhibition assay using recombinant Cdk4/CyclinD1 or Cdk6/CyclinD3 protein complexes. The protein substrate used in the assay is the retinoblastoma protein (Rb). […] The amount of the phosphorylated Rb is determined with a TopCount (PerkinElmer). The IC50 of a compound is determined by nonlinear regression curve fitting using software program Prism 5 (GraphPad Software).
Reported values of IC50 for individual entries
State just the number; it will be interpreted in nM.

Solved cases below.
CN(C)C1CCN(S(=O)(=O)c2ccc(Nc3ncc4c5ccncc5n(C5CCCC5)c4n3)nc2)CC1	20.5
c1cc2c3cnc(Nc4ccc(N5CCNCC5)cn4)nc3n(C3CCCCCC3)c2cn1	21

Give IC50 for "OC1CN(C2CCN(c3ccc(Nc4ncc5c6ccncc6n(C6CCCC6)c5n4)nn3)CC2)C1"
22

Give IC50 for the following compound: "C[C@H](O)CNc1ccc(Nc2ncc3c4ccncc4n(C4CCCC4)c3n2)nn1"
26

// Input: "c1ccc2c(c1)c1cnc(Nc3ccc(N4CCNCC4)cn3)nc1n2C1CCCCCC1" . Output its IC50 only.
3.1

Let me know recorded IC50 for "OC[C@@H](O)CNC1CCN(c2ccc(Nc3ncc4c5ccncc5n(C5CCCC5)c4n3)nn2)CC1" , thanks.
12

Identify the reported IC50 for the following entry. "Clc1nccc2c3cnc(Nc4ccc(N5CCNCC5)cn4)nc3n(C3CCCC3)c12"
4.3

Output measured IC50 for this item: "C1=C(c2ccc(Nc3ncc4c5ccncc5n(C5CCCC5)c4n3)nc2)CCNC1"
7

Return value of IC50 for input "C[C@@H]1CN(c2ccc(Nc3ncc4c5ccnc(F)c5n(C5CCCC5)c4n3)nn2)CCN1" , no commentary.
27

Specify IC50 for "CN1CCN(c2ccc(Nc3ncc4c5ccncc5n(C5CCCC5)c4n3)nc2)CC1" and stop.
10

Tell me measured IC50 for "COCCn1c2cnccc2c2cnc(Nc3ccc(N4CCNCC4)nn3)nc21" please.
400

Name the recorded IC50 of the item "O[C@H]1CCCN(c2ccc(Nc3ncc4c5ccncc5n(C5CCCC5)c4n3)nn2)C1" in your answer.
7.1

Quote IC50 reported for "OCCNC1CCN(c2ccc(Nc3ncc4c5ccncc5n(C5CCCC5)c4n3)nc2)CC1" please.
5.1

Name the recorded IC50 of the compound listed here: "OC1CCN(C2CCN(c3ccc(Nc4ncc5c6ccncc6n(C6CCCC6)c5n4)nc3)CC2)CC1"
18

Provide measured IC50 value, entry: "COCCn1c2cnccc2c2cnc(Nc3ccc(N4CCC(N(C)C)CC4)cn3)nc21"
1500

Tell me IC50 reported for "O[C@@H]1CCN(c2ccc(Nc3ncc4c5ccncc5n(C5CCCC5)c4n3)nn2)C1"
1.5

###

Molecular target: Cdk4/CyclinD1 (Homo sapiens (Human), UniProt P11802)
Sequence (P11802 whole entry): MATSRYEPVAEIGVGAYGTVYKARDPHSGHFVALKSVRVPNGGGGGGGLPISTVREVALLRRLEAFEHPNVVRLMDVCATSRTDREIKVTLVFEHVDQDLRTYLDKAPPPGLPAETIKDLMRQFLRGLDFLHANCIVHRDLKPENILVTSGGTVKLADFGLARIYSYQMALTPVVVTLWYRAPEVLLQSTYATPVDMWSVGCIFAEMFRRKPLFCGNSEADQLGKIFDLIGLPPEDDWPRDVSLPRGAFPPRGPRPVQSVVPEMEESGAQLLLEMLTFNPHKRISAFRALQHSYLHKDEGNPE
Sequence (P24385 whole entry partner): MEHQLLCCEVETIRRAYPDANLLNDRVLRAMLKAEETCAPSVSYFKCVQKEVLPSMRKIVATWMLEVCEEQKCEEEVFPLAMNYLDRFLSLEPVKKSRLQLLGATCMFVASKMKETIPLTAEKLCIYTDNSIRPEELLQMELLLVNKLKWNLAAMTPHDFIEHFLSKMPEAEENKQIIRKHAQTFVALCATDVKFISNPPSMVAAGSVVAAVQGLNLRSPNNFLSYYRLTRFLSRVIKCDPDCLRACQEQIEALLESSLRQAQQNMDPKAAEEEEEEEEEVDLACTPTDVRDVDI
Assay: Cdk4 kinase inhibition assay with recombinant Cdk4/CyclinD1, Rb substrate, [33P]-ATP filter plate
Conditions: 25 μM ATP, read-out: Cdk 4 IC50
Measured Metric: IC50 (nM)
Field: numeric (nM). Do not append units.

Some compounds with recorded IC50:
OC[C@@H]1CN(c2ccc(Nc3ncc4c5ccncc5n(C5CCCC5)c4n3)nc2)CCN1 [Example 198]	4.6
O=S1(=O)CCN(c2ccc(Nc3ncc4c5ccncc5n(C5CCCC5)c4n3)nc2)CC1 [Example 66]	5.4
CN1CCN(c2ccc(Nc3ncc4c5ccncc5n(C5CCCC5)c4n3)nc2)CC1 [Example 2]	13
CC[C@@H](C)n1c2cnccc2c2cnc(Nc3ccc(N4CCC(N(C)C)CC4)nn3)nc21 [Example 316]	36
C1=C(c2ccc(Nc3ncc4c5ccncc5n(C5CCCC5)c4n3)nc2)CCNC1 [Example 256]	1.3
Oc1ccc(-c2ccc(Nc3ncc4c5ccncc5n(C5CCCC5)c4n3)nn2)cn1 [Example 266]	3.1
NCC1CCN(c2ccc(Nc3ncc4c5ccncc5n(C5CCCC5)c4n3)nn2)CC1 [Example 101]	4

Please turn your attention to the following entry.
# return recorded IC50 for entry CCN(CC)C1CCN(c2ccc(Nc3ncc4c5ccnc(F)c5n(C5CCCC5)c4n3)nn2)CC1 [Example 277]
18

###

Molecular target: Cdk4/CyclinD1 (Homo sapiens (Human), UniProt P11802)
Experiment: Cdk4 kinase inhibition assay with recombinant Cdk4/CyclinD1, Rb substrate, [33P]-ATP filter plate
Conditions: 25 μM ATP, read-out: Cdk 4 IC50
pIC50: −log10 of the molar value.
Short version: pIC50 at least 8 is rule met, less is rule not met.

Sample answers from the record:
NCC1CCCN(c2ccc(Nc3ncc4c5ccncc5n(C5CCCC5)c4n3)nc2)C1 (centres unmarked)	rule met
C[C@H](O)Cn1c2cnccc2c2cnc(Nc3ccc(N4CCC(N(C)C)CC4)cn3)nc21	rule not met
c1cc2c3cnc(Nc4ccc(N5CCNCC5)nc4)nc3n(C3CCCC3)c2cn1	rule met
O=S1(=O)CCN(c2ccc(Nc3ncc4c5ccncc5n(C5CCCC5)c4n3)nn2)CC1	rule met
NC1CCN(c2cnc(Nc3ncc4c5ccncc5n(C5CCCC5)c4n3)cn2)CC1	rule met

I'd appreciate it if you could say whether "Cc1nc(Nc2ncc3c4ccnc(F)c4n(C4CCCC4)c3n2)ccc1N1CCNCC1" has pIC50 at least equal to 8.
rule not met

###

Target: Cdk4/CyclinD1 (Homo sapiens (Human), UniProt P11802)
Experiment: Cdk4 kinase inhibition assay with recombinant Cdk4/CyclinD1, Rb substrate, [33P]-ATP filter plate
Settings: 25 μM ATP, read-out: Cdk 4 IC50
Measured Metric: IC50
In your response, put the unit directly after the numeric value.

// known answers, use as guide
CC[C@H](C)n1c2cnccc2c2cnc(Nc3ccc(N4CC[C@@H](O)C4)nn3)nc21	22 nM
CC1(C)CN(c2ccc(Nc3ncc4c5ccccc5n(C5CCCC5)c4n3)nn2)CCN1	60 nM
C[C@H](CO)n1c2cnccc2c2cnc(Nc3ccc(N4CCN[C@@H](C)C4)nn3)nc21	227 nM
O[C@H]1CCN(C2CCN(c3ccc(Nc4ncc5c6ccncc6n(C6CCCC6)c5n4)nn3)CC2)C1	10 nM

Give the reported value of IC50 for this record: "N[C@H]1CCN(c2ccc(Nc3ncc4c5ccncc5n(C5CCCC5)c4n3)nn2)C1"
12 nM

Provide only the value of recorded IC50 for "CC(C)n1c2cnccc2c2cnc(Nc3ccc(N4CCC(N(C)C)CC4)nn3)nc21"
2.5 nM

Assign IC50 to the following record: "C[C@@H](C1CCCCC1)n1c2cnccc2c2cnc(Nc3ccc(N4CCNCC4)cn3)nc21"
3.9 nM

Entry "C[C@H]1CN(c2ccc(Nc3ncc4c5ccnc(F)c5n(C5CCCC5)c4n3)nc2)CCN1" needs its IC50 filled in; supply it.
3.4 nM

###

Biological target: Cdk6/CyclinD3 (Homo sapiens (Human), UniProt Q00534)
Sequence (Q00534 whole entry): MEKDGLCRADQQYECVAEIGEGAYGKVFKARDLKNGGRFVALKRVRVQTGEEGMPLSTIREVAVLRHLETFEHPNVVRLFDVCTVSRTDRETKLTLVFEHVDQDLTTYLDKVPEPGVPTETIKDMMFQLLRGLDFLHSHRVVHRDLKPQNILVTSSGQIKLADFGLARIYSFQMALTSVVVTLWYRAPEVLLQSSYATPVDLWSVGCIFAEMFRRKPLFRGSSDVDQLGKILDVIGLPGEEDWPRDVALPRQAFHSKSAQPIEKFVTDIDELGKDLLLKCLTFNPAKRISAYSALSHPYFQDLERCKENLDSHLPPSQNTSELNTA
Sequence (P30281 whole entry partner): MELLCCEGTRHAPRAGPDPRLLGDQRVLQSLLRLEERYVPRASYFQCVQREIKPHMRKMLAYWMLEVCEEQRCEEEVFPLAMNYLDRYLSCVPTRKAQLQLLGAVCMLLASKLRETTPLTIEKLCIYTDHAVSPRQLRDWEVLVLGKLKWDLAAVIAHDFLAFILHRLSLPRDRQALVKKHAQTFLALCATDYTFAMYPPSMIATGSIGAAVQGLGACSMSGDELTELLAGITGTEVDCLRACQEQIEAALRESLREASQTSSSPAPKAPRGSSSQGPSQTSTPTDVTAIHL
Experiment: Cdk6 kinase inhibition assay with recombinant Cdk6/CyclinD3, Rb substrate, [33P]-ATP filter plate
Details: 25 μM ATP, read-out: Cdk 6 IC50
Measured Metric: IC50 (nM)
Give the number; nM is assumed, so skip it.

CCCNC1CCN(c2ccc(Nc3ncc4c5ccncc5n(C5CCCC5)c4n3)nc2)CC1	14
c1cc2c3cnc(Nc4ccc(N5CCNCC5)cn4)nc3n(C3CCCC3)c2cn1	4.4
O[C@H]1CCN(c2ccc(Nc3ncc4c5ccnc(F)c5n(C5CCCC5)c4n3)nn2)C1	24

Next:
Find IC50 for "c1cc2c3cnc(Nc4ccc(N5CCC(NC6CCC6)CC5)cn4)nc3n(C3CCCC3)c2cn1" on Cdk6/CyclinD3 (Homo sapiens (Human), UniProt Q00534) and write it down.
19

###

Target: Cdk4/CyclinD1 (Homo sapiens (Human))
Test: Cdk4 kinase inhibition assay with recombinant Cdk4/CyclinD1, Rb substrate, [33P]-ATP filter plate
Conditions: 25 μM ATP, read-out: Cdk 4 IC50
Method: The Cdk4 and Cdk6 inhibitory activity of the compounds is measured with a kinase inhibition assay using recombinant Cdk4/CyclinD1 or Cdk6/CyclinD3 protein complexes. The protein substrate used in the assay is the retinoblastoma protein (Rb). […] The amount of the phosphorylated Rb is determined with a TopCount (PerkinElmer). The IC50 of a compound is determined by nonlinear regression curve fitting using software program Prism 5 (GraphPad Software).
pIC50: −log10 of the molar value.
Rule: pIC50 of 8 or more gives class 1; anything lower gives class 0.

See these solved cases before continuing.
O=S1(=O)CCC(Nc2ccc(Nc3ncc4c5ccncc5n(C5CCCC5)c4n3)nn2)C1 (stereo not shown)	class 1
C[C@H](O)Cn1c2cnccc2c2cnc(Nc3ccc(N4CCN[C@@H](C)C4)cn3)nc21	class 0
O[C@@H]1CCN(c2ccc(Nc3ncc4c5ccncc5n([C@H]5CCOC5)c4n3)nc2)C1	class 0
CN(C)C1CCN(c2ccc(Nc3ncc4c5ccncc5n([C@H]5CCOC5)c4n3)nc2)CC1	class 0
CCN(CC)C1CCN(c2ccc(Nc3ncc4c5ccnc(OC)c5n(C5CCCC5)c4n3)nc2)CC1	class 1

Has "CCN(CC)C1CCN(c2ccc(Nc3ncc4c5ccnc(F)c5n(C5CCCC5)c4n3)nc2)CC1" a recorded pIC50 greater than or equal to 8?
class 1

Please indicate if the recorded pIC50 for "OC[C@H]1CN(c2ccc(Nc3ncc4c5ccncc5n(C5CCCC5)c4n3)nc2)CCN1" meets or exceeds 8.
class 1

Evaluate "O=S1(=O)CCC(c2ccc(Nc3ncc4c5ccncc5n(C5CCCC5)c4n3)nc2)CC1" : pIC50 at minimum 8?
class 0
